Each recorded value in this set is attributed to ChEMBL document CHEMBL2321831.

Measured half-life values are reported for all entries that follow.
Assay: Half life in cynomolgus monkey serum at 5 mg/kg, po
Assay type: ADME, organism-based, Macaca fascicularis
Set-up: dose 5 mg/kg, route oral
Supply the numeric figure in h, leaving out any unit text.

Worked cases, half-life given:
C[C@H]1COc2c(N3CCN(C)CC3)c(F)cc3c(=O)c(C(=O)O)cn1c23.C[C@H]1COc2c(N3CCN(C)CC3)c(F)cc3c(=O)c(C(=O)O)cn1c23.O
3.5
COc1c(N2CC3(CC3)[C@](C)(N)C2)c(F)cc2c(=O)c(C(=O)O)cn([C@@H]3C[C@@H]3F)c12
4.8

Quick check: half-life of `COc1c(N2C[C@@H](N)C3(CC3)C2)c(F)cc2c(=O)c(C(=O)O)cn([C@@H]3C[C@@H]3F)c12.Cl.O` ?
3.1
